- assayed.target: human STING (Homo sapiens (Human), UniProt Q86WV6, H232R)
- Sequence (Q86WV6 139-379 H232R): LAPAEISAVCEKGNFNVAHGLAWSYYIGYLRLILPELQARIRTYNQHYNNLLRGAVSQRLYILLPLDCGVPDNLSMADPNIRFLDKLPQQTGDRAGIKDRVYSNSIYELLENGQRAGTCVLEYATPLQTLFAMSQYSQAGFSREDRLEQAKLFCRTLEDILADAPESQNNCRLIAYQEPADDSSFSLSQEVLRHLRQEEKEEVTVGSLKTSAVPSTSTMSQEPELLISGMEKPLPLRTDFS
- assay.procedure: human STING SPA binding assay
quantity.name: IC50 (µM)

>>> data_value("CC1(O)C2OP(=O)(O)OCC3OC(n4cnc5c(=O)[nH]c(N)nc54)C(OP(=O)(O)OCC2OC1n1cnc2c(N)ncnc21)C3O (stereo not shown) [Compound 1]")
54.5
